test: qHTS of pediatric cancer cell lines to identify multiple opportunities for drug repurposing: Primary screen for OHS-50 cells (AID 1347103); conditions: OHS-50 osteosarcoma viability, CellTiter-Glo luminescence, 48 h; series mostly up to 57.3 µM; further: nearly all actives have a fitted effect of over 40% in size; further: potency means the concentration at half of the fitted maximal effect
Inconclusive results are not listed. Active and inactive are the calls of the source. The call rests on the fitted dose curve; in most records, active means well fitted cell-killing curve with a large enough effect; inconclusive means small, poorly fitted or top-dose-only effect; inactive means no such curve, though single readings can be large or run the other way.
measured_metric: Potency

Study these solved cases before continuing.
1) CCCCS(=N)(=O)CCC(N)C(=O)O (stereo unspecified)
inactive
2) O=S(=O)(c1cccc2cnccc12)N1CCCNCC1
inactive
3) O=C(O)c1ccc(-n2nc(-c3ccccc3O)nc2-c2ccccc2O)cc1
21.7 µM (active)
4) COc1ncnc(NS(=O)(=O)c2ccc(N)cc2)c1OC
inactive
5) Nc1ccc(S(=O)(=O)Nc2ccccn2)cc1
inactive

Turning now to a further molecule:
Please report the measured Potency for "CCN(CC)CCn1c(=O)c(Cc2ccc(OC)cc2)nc2ccccc21"
inactive

---

assay: Cell Viability - N2a (AID 540); details: N2a mouse neuroblastoma cell viability;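 further: cells exposed to compound for 40 h at 37 °C; nearly all actives have a fitted effect of over 45% in size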
Records with an inconclusive call do not appear. Calls of active or inactive are those of the source. The call rests on the fitted dose curve; in most records, active means well fitted cell-killing curve with a large enough effect; inconclusive means small, poorly fitted or top-dose-only effect; inactive means flat fitted curve, though single readings scatter.
Response enum: true (1) = active, false (0) = inactive

Outcome? "C[C@]12C=CC(=O)C=C1CC[C@@H]1[C@@H]2C(=O)C[C@@]2(C)[C@H]1CC[C@]2(O)C(=O)CO"
false (0)

Outcome? "CC[C@H](C)C(=O)O[C@H]1C[C@@H](C)C=C2C=C[C@H](C)[C@H](CC[C@@H]3C[C@@H](O)CC(=O)O3)[C@H]21"
true (1)

Outcome? "CC1=NN(c2ccccc2)C(=O)C1"
false (0)

Outcome? "Cc1cc(NS(=O)(=O)c2ccc(N)cc2)no1"
false (0)

Outcome? "O=C(N[C@H](CO)[C@H](O)c1ccc([N+](=O)[O-])cc1)C(Cl)Cl"
false (0)

Outcome? "Cc1ccnc2c1NC(=O)c1cccnc1N2C1CC1"
false (0)

Outcome? "COc1ccc2cc3[n+](cc2c1OC)CCc1cc2c(cc1-3)OCO2"
true (1)

---

Test: qHTS assay for small molecule disruptors of the mitochondrial membrane potential - 5 hr assay (AID 651755); further: nearly all actives have a fitted effect of over 40% in size
Conditions: JC-1-type ratio dye; series mostly up to 92.2 µM
From the text: National Center for Advancing Translational Sciences [NCATS] NIH Chemical Genomics Center [NCGC] National Institutes of Environmental Health Sciences [NIEHS] National Toxicology Program [NTP] Mitochondrial membrane potential (MMP), one of the parameters for mitochondrial function, is generated by mitochondrial electron transport chain that creates an electrochemical gradient by a series of redox reactions. […] The dye accumulates in the mitochondria of healthy cells as aggregates, with red fluorescence. […]
Inconclusive results are not listed. Activity calls are given as the source filed them. Calls follow the shape of the full dose curve.
Response enum: active, inactive

Outcome? "C[C@]12C=CC(=O)C=C1CC[C@@H]1[C@@H]2C(=O)C[C@@]2(C)[C@H]1CC[C@]2(O)C(=O)CO"
inactive

Outcome? "COc1ccc2cc3[n+](cc2c1OC)CCc1cc2c(cc1-3)OCO2"
active

Outcome? "CC[C@H](C)C(=O)O[C@H]1C[C@@H](C)C=C2C=C[C@H](C)[C@H](CC[C@@H]3C[C@@H](O)CC(=O)O3)[C@H]21"
inactive

Outcome? "CCc1cc(C(N)=S)ccn1"
inactive

Outcome? "O=C(N[C@H](CO)[C@H](O)c1ccc([N+](=O)[O-])cc1)C(Cl)Cl"
inactive
